- Test system: P. falciparum stage V gametocytes
- Parameters: BacTiter-Glo ATP luminescence viability of purified stage V gametocytes in 384-well plates, per cent inhibition versus DMSO
- Conditions: 48 h, 5 µM; inhibitor
The whole screen tested about 13,000 compounds, of which about 3,200 (25%) showed an effect of 50% or more. Some of the results follow.
Give % Inhibition for every item shown.
Units required after the number.

Answered examples (3):
CN1CCN(CCCNCc2ccc(Nc3nccc(Nc4ccc(Oc5ccccc5)cc4)n3)cc2)CC1 88.79%
COc1ccc2ncc(Cl)c(CCN3CCC(NCc4ccc5c(n4)NC(=O)CS5)CC3)c2c1 -3.776%
COc1cc(F)c2ncc(Cl)c(CCN3CCC(NCc4ccc5c(n4)NC(=O)CS5)CC3)c2c1 94.95%

Okay, now this molecule:
Sample O=C1CSc2ccc(CNC3CCN(CCc4c(Cl)cnc5ccc(F)cc45)CC3)nc2N1 ; % Inhibition observed: 55.74%
